Molecular target: chimeric BTLA of humanised-BTLA mice (human extracellular region, murine transmembrane and signaling … (human; mouse, UniProt Q7TSA3 184-306, limits assumed); note: test concentration or dose not given here
Sequence (Q7TSA3 other isoform, or with tags, fused parts or gaps mutant limits assumed): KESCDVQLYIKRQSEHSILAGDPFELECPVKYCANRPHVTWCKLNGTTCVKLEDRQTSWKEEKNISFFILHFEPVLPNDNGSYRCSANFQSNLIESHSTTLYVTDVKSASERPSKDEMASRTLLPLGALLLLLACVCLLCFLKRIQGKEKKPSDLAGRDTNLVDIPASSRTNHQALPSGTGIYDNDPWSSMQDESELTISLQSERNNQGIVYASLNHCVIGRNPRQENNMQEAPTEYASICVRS
Assay: cell-based or functional assay
Readout Kind: MLR (CD4 T cell proliferation) repeat 2 (% inhibition)
Report as a plain number; the unit % inhibition is understood.

- Binder: "21C7 (antibody, IgG1, V domains shown, mIgG1) VH: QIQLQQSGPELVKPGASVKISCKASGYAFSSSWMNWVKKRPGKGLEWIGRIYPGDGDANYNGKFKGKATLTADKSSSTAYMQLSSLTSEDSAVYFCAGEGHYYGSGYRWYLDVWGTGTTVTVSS VL: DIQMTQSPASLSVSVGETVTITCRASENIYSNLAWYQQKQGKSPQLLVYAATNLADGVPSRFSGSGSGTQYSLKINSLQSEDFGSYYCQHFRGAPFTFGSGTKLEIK"
  Readout Kind: "MLR (CD4 T cell proliferation) repeat 2"
  Unit Name: "% inhibition"
  Number: 17
- Binder: "14D4 (antibody, IgG1, V domains shown, mIgG1) VH: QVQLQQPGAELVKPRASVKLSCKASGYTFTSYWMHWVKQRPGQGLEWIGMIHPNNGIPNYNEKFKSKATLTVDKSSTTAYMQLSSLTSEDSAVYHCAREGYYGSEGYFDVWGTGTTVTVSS VL: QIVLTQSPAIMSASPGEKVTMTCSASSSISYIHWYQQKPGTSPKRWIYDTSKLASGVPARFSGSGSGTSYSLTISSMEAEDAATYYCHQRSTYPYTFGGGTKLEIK"
  Readout Kind: "MLR (CD4 T cell proliferation) repeat 2"
  Unit Name: "% inhibition"
  Number: 26
- Binder: "831 (antibody, IgG1, V domains shown) VH: DVQLQESGPDLVKPSQSLSVTCTVTGYSITSGYSWHWIRQFPGNKLEWMGYIHYSGSTNYNPSLKSRISITRDTSKNQFFLQLSSVTTEDTATYYCASGPHRYDGVWFAYWGQGTLVTVSS VL: EIVLTQSPTTMAASPGEKITITCSASSSISSNYLHWYQQKPGFSPKLLIYRTSNLASGVPARFSGSGSGTSYSLTIGTMEAEDVATYYCQQGTNIPLTFGAGTKLEIK"
  Readout Kind: "MLR (CD4 T cell proliferation) repeat 2"
  Unit Name: "% inhibition"
  Number: 34
- Binder: "8B4 (antibody, IgG1, V domains shown, mIgG1) VH: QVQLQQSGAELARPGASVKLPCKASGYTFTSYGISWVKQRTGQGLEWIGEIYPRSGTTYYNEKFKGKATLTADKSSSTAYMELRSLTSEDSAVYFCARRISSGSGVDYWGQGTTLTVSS VL: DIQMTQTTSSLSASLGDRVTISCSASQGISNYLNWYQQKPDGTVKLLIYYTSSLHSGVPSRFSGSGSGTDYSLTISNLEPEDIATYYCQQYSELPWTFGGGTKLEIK"
  Readout Kind: "MLR (CD4 T cell proliferation) repeat 2"
  Unit Name: "% inhibition"
  Number: 23
- Binder: "7A1 (antibody, IgG1, V domains shown, mIgG1) VH: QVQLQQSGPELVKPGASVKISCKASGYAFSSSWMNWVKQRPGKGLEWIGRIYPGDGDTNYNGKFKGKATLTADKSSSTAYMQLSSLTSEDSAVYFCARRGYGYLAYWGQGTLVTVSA VL: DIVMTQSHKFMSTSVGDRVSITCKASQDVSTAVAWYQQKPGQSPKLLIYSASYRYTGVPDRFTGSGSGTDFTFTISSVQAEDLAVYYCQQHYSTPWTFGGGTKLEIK"
  Readout Kind: "MLR (CD4 T cell proliferation) repeat 2"
  Unit Name: "% inhibition"
  Number: 29

Request: Could you tell me which MLR (CD4 T cell proliferation) repeat 2 is on file for 15B6 (antibody, IgG1, V domains shown) VH: QVQLQQPGAELVKPGASVKLSCKASGYTFTSYWMHWVKQRPGQGLEWIGMIHPNSGSTNYNEKFKSKATLTVDKSSSTAYMQLSSLTSEDSAVYYCARKRGGLGDYWGQGTSVTVSS VL: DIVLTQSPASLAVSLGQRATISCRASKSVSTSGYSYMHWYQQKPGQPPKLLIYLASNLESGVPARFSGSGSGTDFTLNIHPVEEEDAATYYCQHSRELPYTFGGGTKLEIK ?
Response: 13

Request: Reported MLR (CD4 T cell proliferation) repeat 2, binder 4H4 (antibody, IgG1, V domains shown, mIgG1) VH: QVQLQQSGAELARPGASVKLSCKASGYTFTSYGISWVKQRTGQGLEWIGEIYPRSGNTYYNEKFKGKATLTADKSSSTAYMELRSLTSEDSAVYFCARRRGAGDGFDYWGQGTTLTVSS VL: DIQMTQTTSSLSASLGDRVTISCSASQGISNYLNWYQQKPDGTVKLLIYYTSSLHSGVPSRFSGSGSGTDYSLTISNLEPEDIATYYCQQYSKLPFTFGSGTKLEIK : ____
Response: 17

Request: Find the recorded MLR (CD4 T cell proliferation) repeat 2 belonging to 24H7 (antibody, IgG1, V domains shown, mIgG1) VH: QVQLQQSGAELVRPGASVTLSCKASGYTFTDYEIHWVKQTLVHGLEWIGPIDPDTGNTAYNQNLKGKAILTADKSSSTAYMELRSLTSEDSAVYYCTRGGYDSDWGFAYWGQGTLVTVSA VL: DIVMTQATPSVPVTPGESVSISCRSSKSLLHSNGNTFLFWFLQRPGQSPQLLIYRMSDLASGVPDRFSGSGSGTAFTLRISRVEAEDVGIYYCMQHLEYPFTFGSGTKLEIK and report it.
Response: 31

Request: Name the recorded MLR (CD4 T cell proliferation) repeat 2 for 11.5.1 D265A (antibody, V domains shown) VH: EVQLQESGPSLVKPSQTLSLTCSVTGDSITSAYWNWIRKFPGNKLEYMGYISYSGSTYFNPSLKSRISITRNTSKNQYYLQLNSVTTEDTATYYCARSHYYGYYFDYWGHGTTLTVSS VL: DIVLTQSPASLAVSLGQRATISCRASETIDSYGDSLMHWYQQKAGQPPKLLIYRASNLESGIPARFSGSGSRTDFTLTINPVEADDVATYYCQQTDEDPYTFGGGTKLEIK .
Response: 1

Request: Recorded MLR (CD4 T cell proliferation) repeat 2 of 16H2 (antibody, IgG1, V domains shown, mIgG1) VH: EVQLQQSGPELVQPGASVKISCKASGYTFTDYYMIWVKQSHGKSLEWIGNINPNNGGTTYNQKFKGKATLTVDKSSSTAYMGLPSLTSEDSAVYYCARGGLRPLYFDYWGQGTTLTVSS VL: NIVMTQSPKSMSMSVGERVTLSCKASENVDTYVSWYQQKPEQSPKLLIYGASNRYTGVPDRFTGSGSATDFTLTISSVQAEDLADYHCGQSYSYPLTFGAGTKLELI , please.
Response: 26
